Target: T1, MICA002-ECD-HISAvi (human, UniProt Q29983 24-308)
T1 construct: also called MICA002 polypeptide
T1 chain: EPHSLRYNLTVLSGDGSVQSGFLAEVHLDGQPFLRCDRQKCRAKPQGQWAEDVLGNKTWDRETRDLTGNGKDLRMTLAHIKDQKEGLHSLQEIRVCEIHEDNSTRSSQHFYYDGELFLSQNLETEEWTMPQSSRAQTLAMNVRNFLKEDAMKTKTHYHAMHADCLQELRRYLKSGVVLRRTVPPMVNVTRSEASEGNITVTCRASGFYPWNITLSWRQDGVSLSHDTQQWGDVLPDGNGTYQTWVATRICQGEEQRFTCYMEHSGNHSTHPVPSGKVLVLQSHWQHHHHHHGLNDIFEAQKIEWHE
Test: SPR (Carterra); antibody captured by anti-human Fc, monomeric ECD antigen injected
property-label: Kd (nM)
// return numeric value only (unit: nM, not printed)

Past entries and their recorded results:
binder	Kd (nM)
13A9 (antibody, human IgG1, kappa, V domains shown) VH: QVQLQQSGAELVRPGTSVKVSCKASGYAFTNYLIEWVKQRPGQGLEWIGAINPGSGATNYNEKFKDKARLTADKSSNTAYLQFSSLTSDDSAVYFCARFLGNYFDNWGQGATLTVSS VL: DIQMTQSPASLSASVGETVTITCRASGNIHSYLAWYQQKQGKSPQLLVYYAETLADGVPSRFSGRGSGTQYSLKINSLQPEDFGSYFCQQFWTTPYTFGGGTKVEIKR	0.313
1D5 (antibody, human IgG1, kappa, V domains shown, also called ID5) VH: EIQLQQSGPELVKPGASVKVSCKASGYAFTSQNIYWVKQSHGKSLEWIGYIEPYNVVPMYNPKFKGKATLTVDKSSSSAYIHLNSLTSEDSAIYYCARSGSSNFDYWGQGTTLTVSS VL: EIILTQSPTTMAASPGEKITITCSASSSISSHYLHWYQQKSGFSPKLLIYRTSNLASGVPARFSGSGSGTSYSLTIGTMEAEDVATYYCQQGSSLPLTFGAGTKVEIKR	0.032
D2M001-001 (antibody, V domains shown, only the CDRs are tied to the name in the text; copies: 2 + 2) VH: QVQLVQSGAEVKKPGSSVKVSCKASGYTFSHHSISWVRQAPGQGLEWIGGIYPGKIKTNYAQKFQGRATLTADKSTSTAYMELSSLRSEDTAVYYCATLYGNYEAYWGQGTLVTVSS VL: DIQMTQSPSSLSASVGDRVTITCRASENIYGALNWYQQKPGKSPKLLIYGTTSLQSGVPSRFSGSGSGRDYTLTISSLQPEDFATYYCQNVLTTPPWTFGGGTKVEIK	61.4

Item: 3F9 (antibody, human IgG1, kappa, V domains shown, also called benchmark 3F9) VH: QVQLVESGGGLVKPGGSLRLSCAASGFTFSNYAMSWIRQAPGKGLEWVSYISPGGDYIYYADSVKGRFTISRDNAKNSLYLQMNSLRAEDTAVYYCTTDRRHYGSYAMDYWGQGTLVTVSS VL: DIVMTQSPLSLPVTPGEPASISCRSSKSLLHSNLNTYLYWFLQKPGQSPQILIYRMSNLASGVPDRFSGSGSGTAFTLKISRVEAEDVGVYYCMQHLEYPFTFGPGTKLEIKR | Kd: 1.65
